Test system: Aβ42
Test: Demonstration of in vivo efficacy: Aβ42 lowering in brain after single oral dose (Table 13)
Conditions: mouse brain soluble fraction, ELISA, mean, compared to untreated animals
Param threshold (70 % Ctrl) applies to Aβ42 (% Ctrl)_Mean; output satisfied when value >= threshold, not satisfied when value < threshold.

# smiles, target of assay, discrete label
measured = [
    ("CCN(CC)c1ccc(-c2cn3cccc(Nc4ccc(-n5cnc(C)c5)c(OC)c4)c3n2)cc1", "Aβ42", "satisfied"),
    ("COc1cc(Nc2cccn3cc(-c4ccc(F)cc4C)nc23)ccc1-n1cnc(C)c1", "Aβ42", "not satisfied"),
    ("COc1cc(Nc2cccn3cc(-c4ccc(N5CCOCC5)cc4)nc23)ccc1-n1cnc(C)c1", "Aβ42", "satisfied"),
    ("COc1cc(Nc2cccn3c(C)c(-c4c(F)cccc4F)nc23)ccc1-n1cnc(C)c1", "Aβ42", "not satisfied"),
]
